Tested on: SW-620 colon
METHOD_SUMMARY: NCI-60 one-dose screen, 48 h
COND: 10 µM unless noted
The panel holds about 83,000 compounds, 20% with a hit somewhere; the sample as a whole holds those more often. Active and inactive are the calls of the source. How the source made its calls: active means growth percent below 10; inactive means the rest.
Classes used: active, inactive

compound_structure_string=O=C(Nc1cccc(-c2ccc(Cl)c(C(F)(F)F)c2)c1)C1CCN(Cc2cccc3cccnc23)CC1 class_assignment=active
compound_structure_string=COC(=O)[C@]12CCC(C)(C)C[C@H]1[C@H]1/C(=N/OCCc3nn[nH]n3)C[C@@H]3[C@@]4(C)CC[C@H](OC(C)=O)C(C)(C)[C@@H]4CC[C@@]3(C)[C@]1(C)CC2 class_assignment=inactive
compound_structure_string=Nc1nc2ccc(-c3nc4ccc5[nH]ncc5c4c4c3CCCC4)cc2s1 class_assignment=inactive
compound_structure_string=O=C1c2ccccc2-c2c1c1c(=O)[nH]c3ccccc3c1n2Cc1ccccc1 class_assignment=inactive
compound_structure_string=CCOC(=O)c1cc(C)n(-c2ccc(C(=O)O)cc2)c1C class_assignment=inactive
